FYI, the data here is from ChEMBL document CHEMBL1144685.

- ASSAY_SYSTEM: Fibroblast growth factor receptor 2 (Homo sapiens, UniProt P21802)
- Sequence (P21802 whole entry): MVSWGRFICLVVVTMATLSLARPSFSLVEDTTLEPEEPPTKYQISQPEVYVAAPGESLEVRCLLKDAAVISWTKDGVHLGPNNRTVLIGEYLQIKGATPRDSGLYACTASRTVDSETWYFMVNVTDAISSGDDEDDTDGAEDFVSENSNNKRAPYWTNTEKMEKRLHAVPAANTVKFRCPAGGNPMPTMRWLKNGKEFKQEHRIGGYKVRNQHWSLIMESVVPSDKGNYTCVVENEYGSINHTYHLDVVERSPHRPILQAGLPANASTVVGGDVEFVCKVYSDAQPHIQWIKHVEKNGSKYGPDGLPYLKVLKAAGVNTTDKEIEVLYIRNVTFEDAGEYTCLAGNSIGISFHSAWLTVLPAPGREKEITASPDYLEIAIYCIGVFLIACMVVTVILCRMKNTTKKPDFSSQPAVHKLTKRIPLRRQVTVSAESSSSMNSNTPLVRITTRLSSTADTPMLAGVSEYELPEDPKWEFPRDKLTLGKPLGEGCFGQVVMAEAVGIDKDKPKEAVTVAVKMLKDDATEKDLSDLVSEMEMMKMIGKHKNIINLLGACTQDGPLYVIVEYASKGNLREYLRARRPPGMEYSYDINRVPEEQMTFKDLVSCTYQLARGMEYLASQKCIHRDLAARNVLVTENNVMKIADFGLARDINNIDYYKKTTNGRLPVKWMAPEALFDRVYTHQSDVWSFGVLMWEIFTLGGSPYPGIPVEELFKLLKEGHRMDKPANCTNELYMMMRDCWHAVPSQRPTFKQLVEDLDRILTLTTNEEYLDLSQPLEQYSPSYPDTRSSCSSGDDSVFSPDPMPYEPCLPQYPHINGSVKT
ENDPOINT_LABEL: IC50

Q. Request - read-out IC50 | tested on Fibroblast growth factor receptor 2 (Homo sapiens, UniProt P21802) | compound COc1cc2nccc(Oc3ccc4c(C(=O)Nc5ccc(Cl)cc5)cccc4c3)c2cc1OC
A. > 20 µM

---

- Tested on: HUVEC
- ASSAY_REMARKS: cells
- ASSAY_SETUP: Homo sapiens
- Description: Inhibition of VEGF-induced proliferation of HUVEC cells
pIC50: −log10 of the molar value.
Decide using pIC50: a value greater than or equal to 8 is class 1, a smaller one is class 0.

// known answers, use as guide
{"MOL_SMILES": "COc1cc2nccc(Oc3ccc4c(C(=O)Nc5cccc(C(F)(F)F)c5)cccc4c3)c2cc1OC", "ASSAY_SYSTEM": "HUVEC", "CLASS_NAME": "class 0"}
{"MOL_SMILES": "COc1cc2nccc(Oc3ccc4c(C(=O)Nc5ccc(F)cc5)cccc4c3)c2cc1OC", "ASSAY_SYSTEM": "HUVEC", "CLASS_NAME": "class 1"}

Could you now look at the following compound, please?
Q. Answer whether pIC50 of COc1cc2nccc(Oc3ccc4c(C(=O)NC(C)C)cccc4c3)c2cc1OC is greater than or equal to 8.
A. class 1
